B1: Transcriptional repressor p66-beta, residues 415 to 455; numbered along this chain, Q8WXI9 (parent)
chain: VEPFVCAQCRTDFTPHWKQEKNGKILCEQCMTSNQKKALKA

Variants of: B1
procedure-summary: abundance fitness (aPCA) (normalised: wild type 0, dead -1); higher = more abundant; growth selection in yeast, the domain comes from the species named
measurement-conditions: Homo sapiens
Everything with abundance fitness lower than -0.07 is -1; everything else, including exactly -0.07, is 1.

Assess whether reported abundance fitness for C9D sits at -0.07 or higher.
-1

Now the same for N22R
1

// next record K21S
-1

Can you check C6G next?
-1

Again, but for F4S
-1

Please give the result for C9K too.
-1

Quick one: K36G
1

Thanks! And N22G ?
1

Next variant up: C6E
-1

T11R ?
1

Now the same for E28F
-1

Likewise for Q29K ?
1

Next up: R10C
1

Also T11C ?
1

Please answer likewise for E20F
-1

Next entry: K24T
-1

Try the variant K37S
1

Consider next the variant Q35G in the same way.
-1

Another: A41M
-1

Input K36L
-1

Next record, please: K18T
-1
